- Tested on: HOP-92 NSCLC
- Measurement notes: NCI-60 one-dose screen, 48 h (100 = growth as untreated, 0 = no growth, -100 = all killed)
- Test parameters: 10 µM unless noted
This is part of a sample that, as a whole, favours compounds with a hit. Of some 83,000 tested, about 20% had one in any assay. Activity calls are given as the source filed them. Rule for the calls: active = growth percent below 10; inactive = the rest.
Measured growth values are reported for all entries that follow.

CCOc1cc2ncc(C#N)c(Nc3ccc(OCc4cccc(F)c4)c(Cl)c3)c2cc1NC(=O)CCCCC1CCSS1 (stereo not given)
78.9% (inactive)
COc1ccc(-n2nc(C)c3c(Nc4ccc(NC(=O)Nc5ccc(Cl)c(C(F)(F)F)c5)cc4)ncnc32)cc1
-18.9% (active)
Cc1cn2c(/C=C3/C(=O)Nc4c3ccc3ccccc43)c(C(F)(F)F)nc2s1
20.8% (inactive)

Task: # input compound: CNC(=O)c1cc(Oc2ccc(NC(=O)Nc3ccc(Cl)c(SC)c3)c(F)c2)ccn1 ; wanted: its growth
Output: 48.8% (inactive)

Task: Same read-out for COc1cc(C(=O)Oc2ccccc2OC(=O)c2cc(OC)c(OC)c(OC)c2)cc(OC)c1OC ?
Output: 83.4% (inactive)

Task: Same read-out for N#Cc1c(N)n(CCNC(=O)c2ccccc2)c2nc3ccccc3nc12 ?
Output: -17.4% (active)

Task: Same read-out for CN(C)CCCNc1c2ccccc2nc2ccccc12 ?
Output: 180% (inactive)

Task: Same read-out for CSc1nc(Nc2cccc(NC(=O)/C(C#N)=C/c3c(Cl)cccc3Cl)c2)c(C#N)c(-c2cccc([N+](=O)[O-])c2)n1 ?
Output: 59.8% (inactive)

Task: Same read-out for Cc1[nH]c(-c2cc(N)ccc2Cl)c2c1C(=O)CCCC2 ?
Output: 24.5% (inactive)

Task: Same read-out for COc1ccc(C2C(C#N)=C(N)Oc3n[nH]c(-c4cccs4)c32)cc1I (stereo not given) ?
Output: 88.2% (inactive)
